- Tested on: Escherichia coli TOP10
- EXPERIMENT NOTES: shrunken log2 fold change of peptide-encoding DNA abundance (4.5 h post-induction vs induction); higher = less antimicrobial activity (less host growth inhibition)
- CONDITION PARAMETERS: time post-induction: 4.5 h; library: site-saturation at positions 5, 18, 19, 20

[
  {
    "SEQUENCE RECORD": "RRIRTRPPRLPRPRPRPCDYPRP",
    "shrunken log2 fold change": -0.0715
  },
  {
    "SEQUENCE RECORD": "RRIRARPPRLPRPRPRPWFRPRP",
    "shrunken log2 fold change": 0.133
  },
  {
    "SEQUENCE RECORD": "RRIRSRPPRLPRPRPRPQKEPRP",
    "shrunken log2 fold change": 0.052
  },
  {
    "SEQUENCE RECORD": "RRIRTRPPRLPRPRPRPLQGPRP",
    "shrunken log2 fold change": 0.12
  },
  {
    "SEQUENCE RECORD": "RRIRTRPPRLPRPRPRPLQTPRP",
    "shrunken log2 fold change": -0.00743
  },
  {
    "SEQUENCE RECORD": "RRIRTRPPRLPRPRPRPVDAPRP",
    "shrunken log2 fold change": 0.188
  },
  {
    "SEQUENCE RECORD": "RRIRARPPRLPRPRPRPKYSPRP",
    "shrunken log2 fold change": -0.39
  }
]

====

- System: Escherichia coli TOP10;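 also: peptides expressed intracellularly from a pBAD plasmid library in pooled LB shake-flask culture, induced with 0.3% L-arabinose, DNA abundance read by NGS, three biological replicates, DESeq2 with apeglm shrinkage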
- EXPERIMENT NOTES: shrunken log2 fold change of peptide-encoding DNA abundance (4.5 h post-induction vs induction); higher = less antimicrobial activity (less host growth inhibition)
- CONDITION PARAMETERS: time post-induction: 4.5 h; library: site-saturation at positions 5, 18, 19, 20
QUANTITY NAME: shrunken log2 fold change

[
  {
    "SEQUENCE RECORD": "RRIRQRPPRLPRPRPRPAKFPRP",
    "QUANTITY NAME": "shrunken log2 fold change",
    "VAL": -0.103
  },
  {
    "SEQUENCE RECORD": "RRIRVRPPRLPRPRPRPQTSPRP",
    "QUANTITY NAME": "shrunken log2 fold change",
    "VAL": -0.0971
  },
  {
    "SEQUENCE RECORD": "RRIRWRPPRLPRPRPRPMDNPRP",
    "QUANTITY NAME": "shrunken log2 fold change",
    "VAL": -0.0894
  },
  {
    "SEQUENCE RECORD": "RRIRQRPPRLPRPRPRPMQMPRP",
    "QUANTITY NAME": "shrunken log2 fold change",
    "VAL": 0.0303
  },
  {
    "SEQUENCE RECORD": "RRIRYRPPRLPRPRPRPLLYPRP",
    "QUANTITY NAME": "shrunken log2 fold change",
    "VAL": -0.94
  },
  {
    "SEQUENCE RECORD": "RRIRARPPRLPRPRPRPLDWPRP",
    "QUANTITY NAME": "shrunken log2 fold change",
    "VAL": 1
  },
  {
    "SEQUENCE RECORD": "RRIRWRPPRLPRPRPRPDTNPRP",
    "QUANTITY NAME": "shrunken log2 fold change",
    "VAL": -0.144
  },
  {
    "SEQUENCE RECORD": "RRIRWRPPRLPRPRPRPVAQPRP",
    "QUANTITY NAME": "shrunken log2 fold change",
    "VAL": 0.386
  },
  {
    "SEQUENCE RECORD": "RRIRRRPPRLPRPRPRPMSGPRP",
    "QUANTITY NAME": "shrunken log2 fold change",
    "VAL": 0.0609
  },
  {
    "SEQUENCE RECORD": "RRIRERPPRLPRPRPRPYYYPRP",
    "QUANTITY NAME": "shrunken log2 fold change",
    "VAL": -0.732
  },
  {
    "SEQUENCE RECORD": "RRIRRRPPRLPRPRPRPHEAPRP",
    "QUANTITY NAME": "shrunken log2 fold change",
    "VAL": 0.0262
  },
  {
    "SEQUENCE RECORD": "RRIRFRPPRLPRPRPRPFMPPRP",
    "QUANTITY NAME": "shrunken log2 fold change",
    "VAL": -0.469
  },
  {
    "SEQUENCE RECORD": "RRIRLRPPRLPRPRPRPWVMPRP",
    "QUANTITY NAME": "shrunken log2 fold change",
    "VAL": -1.02
  },
  {
    "SEQUENCE RECORD": "RRIRMRPPRLPRPRPRPLVPPRP",
    "QUANTITY NAME": "shrunken log2 fold change",
    "VAL": 0.208
  },
  {
    "SEQUENCE RECORD": "RRIRVRPPRLPRPRPRPTQDPRP",
    "QUANTITY NAME": "shrunken log2 fold change",
    "VAL": 0.386
  },
  {
    "SEQUENCE RECORD": "RRIRSRPPRLPRPRPRPLITPRP",
    "QUANTITY NAME": "shrunken log2 fold change",
    "VAL": -0.012
  },
  {
    "SEQUENCE RECORD": "RRIRRRPPRLPRPRPRPEHPPRP",
    "QUANTITY NAME": "shrunken log2 fold change",
    "VAL": 3.32
  },
  {
    "SEQUENCE RECORD": "RRIRLRPPRLPRPRPRPDKIPRP",
    "QUANTITY NAME": "shrunken log2 fold change",
    "VAL": -0.494
  },
  {
    "SEQUENCE RECORD": "RRIRLRPPRLPRPRPRPLRMPRP",
    "QUANTITY NAME": "shrunken log2 fold change",
    "VAL": 0.222
  },
  {
    "SEQUENCE RECORD": "RRIRTRPPRLPRPRPRPYNHPRP",
    "QUANTITY NAME": "shrunken log2 fold change",
    "VAL": -0.138
  },
  {
    "SEQUENCE RECORD": "RRIRWRPPRLPRPRPRPRCDPRP",
    "QUANTITY NAME": "shrunken log2 fold change",
    "VAL": 0.429
  },
  {
    "SEQUENCE RECORD": "RRIRWRPPRLPRPRPRPLNWPRP",
    "QUANTITY NAME": "shrunken log2 fold change",
    "VAL": 0.101
  },
  {
    "SEQUENCE RECORD": "RRIRNRPPRLPRPRPRPVDSPRP",
    "QUANTITY NAME": "shrunken log2 fold change",
    "VAL": -0.196
  },
  {
    "SEQUENCE RECORD": "RRIRMRPPRLPRPRPRPDWPPRP",
    "QUANTITY NAME": "shrunken log2 fold change",
    "VAL": 0.637
  },
  {
    "SEQUENCE RECORD": "RRIRVRPPRLPRPRPRPYHPPRP",
    "QUANTITY NAME": "shrunken log2 fold change",
    "VAL": -0.406
  },
  {
    "SEQUENCE RECORD": "RRIRERPPRLPRPRPRPSCNPRP",
    "QUANTITY NAME": "shrunken log2 fold change",
    "VAL": -0.0433
  },
  {
    "SEQUENCE RECORD": "RRIRMRPPRLPRPRPRPVTRPRP",
    "QUANTITY NAME": "shrunken log2 fold change",
    "VAL": 0.494
  },
  {
    "SEQUENCE RECORD": "RRIRCRPPRLPRPRPRPEQAPRP",
    "QUANTITY NAME": "shrunken log2 fold change",
    "VAL": 0.219
  },
  {
    "SEQUENCE RECORD": "RRIRARPPRLPRPRPRPVANPRP",
    "QUANTITY NAME": "shrunken log2 fold change",
    "VAL": 0.238
  },
  {
    "SEQUENCE RECORD": "RRIRMRPPRLPRPRPRPCDFPRP",
    "QUANTITY NAME": "shrunken log2 fold change",
    "VAL": -0.121
  },
  {
    "SEQUENCE RECORD": "RRIRDRPPRLPRPRPRPPKMPRP",
    "QUANTITY NAME": "shrunken log2 fold change",
    "VAL": 0.166
  },
  {
    "SEQUENCE RECORD": "RRIRCRPPRLPRPRPRPDYVPRP",
    "QUANTITY NAME": "shrunken log2 fold change",
    "VAL": -1.26
  },
  {
    "SEQUENCE RECORD": "RRIRNRPPRLPRPRPRPCVAPRP",
    "QUANTITY NAME": "shrunken log2 fold change",
    "VAL": -0.23
  },
  {
    "SEQUENCE RECORD": "RRIRCRPPRLPRPRPRPGQQPRP",
    "QUANTITY NAME": "shrunken log2 fold change",
    "VAL": 0.0269
  },
  {
    "SEQUENCE RECORD": "RRIRVRPPRLPRPRPRPGTIPRP",
    "QUANTITY NAME": "shrunken log2 fold change",
    "VAL": -0.0277
  },
  {
    "SEQUENCE RECORD": "RRIRRRPPRLPRPRPRPLLCPRP",
    "QUANTITY NAME": "shrunken log2 fold change",
    "VAL": 0.35
  },
  {
    "SEQUENCE RECORD": "RRIRIRPPRLPRPRPRPMFMPRP",
    "QUANTITY NAME": "shrunken log2 fold change",
    "VAL": -0.383
  },
  {
    "SEQUENCE RECORD": "RRIRYRPPRLPRPRPRPGRTPRP",
    "QUANTITY NAME": "shrunken log2 fold change",
    "VAL": -0.121
  },
  {
    "SEQUENCE RECORD": "RRIRVRPPRLPRPRPRPSMTPRP",
    "QUANTITY NAME": "shrunken log2 fold change",
    "VAL": -0.175
  }
]
